# system: HLA-B*08:02
# protocol details: IEDB peptide-MHC binding, purified MHC/direct/fluorescence; filed as Kd, often an IC50 or EC50 that approximates it; bounds were set here for any values at or beyond the usual limits of such assays
# assay context: source organism: Francisella tularensis subsp. tularensis FSC033
experimental readout: Kd

// query Give the value of Kd reported for the following: RYSNFAWYF
// result ≥ 20 µM

====

# system: HLA-C*08:02
# protocol details: IEDB peptide-MHC binding, purified MHC/direct/fluorescence; filed as Kd, often an IC50 or EC50 that approximates it; bounds were set here for any values at or beyond the usual limits of such assays
# assay context: source organism: Escherichia coli 536
experimental readout: Kd

// query For the sequence LLDEYRDYI , give its measured Kd value.
// result ≥ 20 µM
